Data provenance is paper PMC12494099.

Assay: Pharmacokinetic study in vivo
Design: species or system BALB/c mice
Details: male, BALB/c, mouse, plasma, iv; mice, i.v., 2 mg/kg; read-out: MRT0-inf
observedProperty: MRT inf (min)
One number for each entry, in min.

Q: Entry CN1CCN(Cc2cccc(C(=O)NC3CCC(=O)NC3=O)c2F)C(=O)C1 (stereo not shown) [MGD-C9] : reported MRT inf = ?
A: 15.6

* * *

Give measured IC50 for each item. Keep answers brief.
System: U2932
Test: Cell viability (CCK-8) assay
Format: cell-based
Conditions: Homo sapiens, U2932; DLBCL, 96 h; read-out: IC50 (μM) U2932
Numbers only, in µM.

Q: Endpoint output: IC50 of CN1CCN(Cc2cccc(C(=O)NC3CCC(=O)NC3=O)c2F)C(=O)C1 (centres unmarked) . Value?
A: 1.25

Others:
Q: IC50 lookup needed for CN1CCN(Cc2cccc(C(=O)NC3CCC(=O)NC3=O)c2)CC1 (centres unmarked) , thanks.
A: 3.34

* * *

System: MOLM-13
Experiment: Cell viability (CCK-8) assay
Assay type: cell-based
Conditions: Homo sapiens, MOLM-13, 96 h, read-out: IC50 (μM) MOLM-13
observedProperty: IC50 (µM)
Answers are plain numbers, in µM.

Q: Quick check: IC50 of Nc1cccc2c1C(=O)N(C1CCC(=O)NC1=O)C2=O (stereo not shown) [Pomalidomide, reference compound] ?
A: 12.4

* * *

Assay: Pharmacokinetic study in vivo
Design: species or system BALB/c mice
Details: male, BALB/c, mouse, plasma, po; mice, 50 mg/kg
observedProperty: AUC(0-inf) (ng·h/mL)
Numbers only, in ng·h/mL.

Q: Tell me the measured AUC(0-inf) of CN1CCN(Cc2cccc(C(=O)NC3CCC(=O)NC3=O)c2F)C(=O)C1 (stereo not shown) , please.
A: 11400

* * *

Tested on: MUTZ-1
Experiment: Cell viability (CCK-8) assay
Format: cell-based
Conditions: 96 h, read-out: IC50 (μM) MUTZ-1
observedProperty: IC50

Q: Which IC50 reading was recorded for the compound Nc1cccc2c1C(=O)N(C1CCC(=O)NC1=O)C2=O (stereo not shown) [Pomalidomide, reference compound] ?
A: 17.3 µM

* * *

Test system: MOLM-13
Assay: Cell viability (CCK-8) assay
Type: cell-based
Details: Homo sapiens, MOLM-13; AML, 96 h; read-out: IC50 (μM) MOLM-13
observedProperty: IC50 (µM)
One number for each entry, in µM.

Q: Which IC50 is listed for CN1CCN(Cc2cccc(C(=O)NC3CCC(=O)NC3=O)c2)CC1 (centres unmarked) [MGD-A7] ?
A: 19.3

Continue with the next compound.
Q: # input compound: CN1CCN(Cc2cccc(C(=O)NC3CCC(=O)NC3=O)c2F)C(=O)C1 (centres unmarked) [MGD-C9] ; wanted: its IC50
A: 9.11

* * *

Test system: OPM-2
Assay: Cell viability (CCK-8) assay
Format: cell-based
Settings: Homo sapiens, OPM-2; MM, 96 h; read-out: IC50 (μM) OPM-2
observedProperty: IC50 (µM)
Answers are plain numbers, in µM.

Q: Enter reported IC50 observed with OPM-2 for CN1CCN(Cc2cccc(C(=O)NC3CCC(=O)NC3=O)c2F)C(=O)C1 (centres unmarked)
A: 0.0845

Next:
Q: Under OPM-2: IC50 value of CN1CCN(Cc2cccc(C(=O)NC3CCC(=O)NC3=O)c2)CC1 (centres unmarked) ?
A: 0.153

* * *

Test: Pharmacokinetic study in vivo
Set-up: species or system BALB/c mice
Details: male, BALB/c, mouse, plasma, oral; mice, p.o. 50 mg/kg vs i.v. 2 mg/kg; read-out: F (oral bioavailability)
observedProperty: bioavailability (%)
Answers are plain numbers, in %.

Q: bioavailability lookup needed for CN1CCN(Cc2cccc(C(=O)NC3CCC(=O)NC3=O)c2F)C(=O)C1 (stereo not shown) [MGD-C9] , thanks.
A: 33.5

* * *

Molecular target: IKZF3-HiBiT (Homo sapiens, UniProt Q96SW2+Q9UKT9)
Construct: expressed in transfected cells; host or cells: HEK293T
Sequence (Q9UKT9 whole entry): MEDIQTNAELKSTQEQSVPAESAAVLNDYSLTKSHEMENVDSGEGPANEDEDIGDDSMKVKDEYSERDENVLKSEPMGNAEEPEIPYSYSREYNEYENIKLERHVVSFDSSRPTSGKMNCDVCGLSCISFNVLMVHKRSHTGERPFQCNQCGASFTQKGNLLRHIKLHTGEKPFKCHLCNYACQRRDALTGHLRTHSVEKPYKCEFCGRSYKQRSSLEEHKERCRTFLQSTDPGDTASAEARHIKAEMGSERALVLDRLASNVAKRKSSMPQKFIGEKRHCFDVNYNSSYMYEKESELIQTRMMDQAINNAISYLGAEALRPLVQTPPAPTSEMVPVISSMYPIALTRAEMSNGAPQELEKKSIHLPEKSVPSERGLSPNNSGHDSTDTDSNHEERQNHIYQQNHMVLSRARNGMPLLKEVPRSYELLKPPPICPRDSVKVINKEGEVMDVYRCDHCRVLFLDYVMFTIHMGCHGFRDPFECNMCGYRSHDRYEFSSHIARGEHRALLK
Sequence (Q96SW2 whole entry): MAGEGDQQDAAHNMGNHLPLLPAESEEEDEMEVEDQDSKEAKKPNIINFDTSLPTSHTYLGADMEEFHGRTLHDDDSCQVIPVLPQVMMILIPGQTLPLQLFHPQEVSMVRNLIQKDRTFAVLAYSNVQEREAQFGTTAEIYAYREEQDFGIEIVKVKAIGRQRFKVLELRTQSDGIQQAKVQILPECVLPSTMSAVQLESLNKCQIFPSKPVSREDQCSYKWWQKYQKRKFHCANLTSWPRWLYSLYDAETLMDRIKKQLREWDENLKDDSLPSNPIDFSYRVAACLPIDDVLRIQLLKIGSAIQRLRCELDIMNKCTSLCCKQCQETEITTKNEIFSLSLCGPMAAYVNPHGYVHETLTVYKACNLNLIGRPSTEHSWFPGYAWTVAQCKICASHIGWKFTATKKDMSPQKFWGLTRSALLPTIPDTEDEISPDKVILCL
Sequence (Q16531 whole entry partner): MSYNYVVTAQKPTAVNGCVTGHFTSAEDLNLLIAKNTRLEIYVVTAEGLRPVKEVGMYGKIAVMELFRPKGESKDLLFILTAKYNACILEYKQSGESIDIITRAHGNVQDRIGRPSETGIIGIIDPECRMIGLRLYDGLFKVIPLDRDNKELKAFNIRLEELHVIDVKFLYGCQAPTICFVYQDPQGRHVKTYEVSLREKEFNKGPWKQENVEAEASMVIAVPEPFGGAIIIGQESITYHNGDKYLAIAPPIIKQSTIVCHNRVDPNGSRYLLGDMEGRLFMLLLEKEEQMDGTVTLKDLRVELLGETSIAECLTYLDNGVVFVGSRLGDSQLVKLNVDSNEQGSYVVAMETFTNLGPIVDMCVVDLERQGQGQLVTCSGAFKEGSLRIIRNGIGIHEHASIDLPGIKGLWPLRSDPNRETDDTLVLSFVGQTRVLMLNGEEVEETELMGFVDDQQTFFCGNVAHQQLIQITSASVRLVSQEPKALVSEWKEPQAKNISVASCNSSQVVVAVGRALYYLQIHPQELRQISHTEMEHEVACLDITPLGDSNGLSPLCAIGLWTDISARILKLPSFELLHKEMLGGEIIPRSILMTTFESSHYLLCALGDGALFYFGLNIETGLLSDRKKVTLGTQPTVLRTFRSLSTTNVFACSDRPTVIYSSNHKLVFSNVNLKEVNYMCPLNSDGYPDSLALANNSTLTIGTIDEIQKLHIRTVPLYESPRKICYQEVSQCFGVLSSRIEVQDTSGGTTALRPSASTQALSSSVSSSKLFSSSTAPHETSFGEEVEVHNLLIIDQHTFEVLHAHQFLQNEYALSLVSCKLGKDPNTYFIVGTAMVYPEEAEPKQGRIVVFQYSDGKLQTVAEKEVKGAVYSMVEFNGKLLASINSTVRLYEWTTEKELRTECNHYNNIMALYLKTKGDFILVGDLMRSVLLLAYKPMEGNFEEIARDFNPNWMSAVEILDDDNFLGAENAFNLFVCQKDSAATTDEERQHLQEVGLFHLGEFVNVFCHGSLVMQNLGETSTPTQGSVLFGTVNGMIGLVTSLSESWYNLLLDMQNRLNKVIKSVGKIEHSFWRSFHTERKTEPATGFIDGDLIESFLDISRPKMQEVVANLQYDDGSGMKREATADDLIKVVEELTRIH
Assay: Quantitative degradation assay using the HiBiT system (HEK293T)
Assay type: cell-based
Conditions: HEK-293T; HEK293T IKZF3-HiBiT, 24 h; read-out: maximal degradation (Dmax) on IKZF3
observedProperty: Dmax (%)
Numbers only, in %.

Example results:
Q: Sample Nc1cccc2c1C(=O)N(C1CCC(=O)NC1=O)C2=O (stereo not shown) [Pomalidomide, reference compound] — what was its Dmax?
A: 69.4

Q: Which Dmax reading was recorded for the molecule CN1CCN(Cc2cccc(C(=O)NC3CCC(=O)NC3=O)c2F)C(=O)C1 (stereo not shown) ?
A: 92.1

Q: Please give the measured Dmax for this molecule: CN1CCN(Cc2cccc(C(=O)NC3CCC(=O)NC3=O)c2)CC1 (stereo not shown)
A: 86.4

Field: next molecule
Q: Quick check: Dmax of Cc1nc2cccc(N)c2c(=O)n1C1CCC(=O)NC1=O (stereo not shown) [Avadomide, reference compound] ?
A: 83.1

* * *

System: MV-4-11
Test: Cell viability (CCK-8) assay
Assay type: cell-based
Details: Homo sapiens, MV4-11, 96 h, 96 h, CCK-8
IC50 less than 2 µM is T; IC50 greater than or equal to 2 µM is F.

Q: Hello, I'm reviewing records and need to know if IC50 of CC1CCCC(C)N1Cc1cccc(C(=O)NC2CCC(=O)NC2=O)c1 (stereo not drawn) is below 2 µM. Could you check?
A: F

Q: Please check: IC50 for Nc1cccc2c1CN(C1CCC(=O)NC1=O)C2=O (stereo not drawn) [Lenalidomide, reference compound] , strictly under 2 µM or not?
A: F

Q: Lab note: confirm whether the reported IC50 for this compound is below 2 µM, equality not counting. compound: CN1CCN(Cc2cccc(C(=O)NC3CCC(=O)NC3=O)n2)C(=O)C1 (stereo not drawn)
A: T

Next:
Q: Criterion: IC50 strictly below 2 µM. Is it met by O=C1CCC(NC(=O)c2cccc(CN3CCSCC3=O)n2)C(=O)N1 (stereo not drawn) ?
A: F

Q: In plain terms, does CCN1CCN(Cc2cccc(C(=O)NC3CCC(=O)NC3=O)c2)CC1 (stereo not drawn) come in under 2 µM for IC50?
A: T

Q: Decide: IC50 of O=C1CCC(NC(=O)c2cccc(CN3CCCC3=O)c2F)C(=O)N1 (stereo not drawn) strictly below 2 µM?
A: F

Q: Is 2 µM strictly greater than the compound's reported IC50? compound: O=C1CCC(NC(=O)c2cccc(C(=O)N3CCCC3)c2)C(=O)N1 (stereo not drawn)
A: F

Q: Could you please tell me whether IC50 recorded for O=C1CCC(NC(=O)c2cccc(C(=O)N3CCCCC3)c2)C(=O)N1 (stereo not drawn) is less than 2 µM?
A: F

Q: Answer whether the compound CN1CCN(Cc2cccc(C(=O)NC3CCC(=O)NC3=O)c2F)CC1 (stereo not drawn) has IC50 strictly less than 2 µM
A: T

* * *

Test: Pharmacokinetic study in vivo
Design: species or system BALB/c mice
Conditions: male, BALB/c, mouse, plasma, iv; mice, 2 mg/kg
observedProperty: AUC(0-inf) (ng·h/mL)
One number for each entry, in ng·h/mL.

Q: Record request: AUC(0-inf) value, item CN1CCN(Cc2cccc(C(=O)NC3CCC(=O)NC3=O)c2F)C(=O)C1 (stereo not shown) [MGD-C9]
A: 1360

* * *

Assay: Pharmacokinetic study in vivo
Set-up: species or system BALB/c mice
Conditions: male, BALB/c, mouse, plasma, iv; mice, i.v., 2 mg/kg; read-out: Vz
observedProperty: Vd

Q: Consider the compound CN1CCN(Cc2cccc(C(=O)NC3CCC(=O)NC3=O)c2F)C(=O)C1 (stereo not shown) and give its measured Vd.
A: 0.42 L/kg

* * *

System: control vector MV-4-11 cells
Assay: Cell viability, control vector cells
Type: cell-based
Details: Homo sapiens, MV4-11, 96 h
observedProperty: IC50 (µM)
Give bare numbers, in µM.

Q: Any idea what IC50 was measured for CN1CCN(Cc2cccc(C(=O)NC3CCC(=O)NC3=O)c2)CC1 (centres unmarked) ?
A: 0.676

The record that follows has no IC50 shown yet.
Q: Look up IC50: CN1CCN(Cc2cccc(C(=O)NC3CCC(=O)NC3=O)c2F)C(=O)C1 (centres unmarked)
A: 0.198

* * *

System: MV-4-11
Assay: Cell viability (CCK-8) assay
Type: cell-based
Settings: Homo sapiens, MV4-11, 96 h, 96 h, CCK-8
Experimental: The plated at a density of 15,000 cells per well, and each well contained 100 µL of medium. Subsequently, different compounds (MGD-AX, MGD-BX, MGD-CX) were added to each well. […] To evaluate the antiproliferative effects of these compounds, the Cell Counting Kit-8 (CCK-8, #CX007, Epizyme, Shanghai, China) was used. All procedures were carried out in strict accordance with the manufacturer’s instructions (Dojindo Laboratories, Mamoto Ken, Japan).
observedProperty: IC50 (µM)
Numbers only, in µM.

Here is how some compounds turned out for IC50.
Q: Fill in: IC50 of O=C1CCC(NC(=O)c2cccc(CN3CCCCC3)n2)C(=O)N1 (stereo not drawn) is ___
A: 6.78

Q: Recorded IC50 for O=C1CCC(N2C(=O)c3ccccc3C2=O)C(=O)N1 (stereo not drawn) [Thalidomide, reference compound] , please?
A: 26.5

Q: GET /values?readout=IC50&item= O=C1CCC(NC(=O)c2cccc(CN3CCOCC3=O)n2)C(=O)N1 (stereo not drawn)
A: 1.93

Q: Value lookup for IC50; key = CC1CCN(C(=O)c2cccc(C(=O)NC3CCC(=O)NC3=O)c2)CC1 (stereo not drawn)
A: 14.3

Q: Which IC50 reading was recorded for the compound CN1CCN(Cc2cccc(C(=O)NC3CCC(=O)NC3=O)c2)CC1 (stereo not drawn) ?
A: 0.59

Q: May I ask what IC50 has been recorded for O=C1CCC(NC(=O)c2cccc(CN3CCCC3=O)n2)C(=O)N1 (stereo not drawn) ?
A: 3.34

Q: Can you share its IC50? I mean this compound: CC1CCCCN1Cc1cccc(C(=O)NC2CCC(=O)NC2=O)c1 (stereo not drawn)
A: 6.03

Q: What does the record list as IC50 for O=C1CCC(NC(=O)c2cccc(CN3CCSCC3)n2)C(=O)N1 (stereo not drawn) ?
A: 1.58

Could you now consider this next compound?
Q: Consider the compound shown here: O=C1CCC(NC(=O)c2cccc(C(=O)N3CCSCC3)c2)C(=O)N1 (stereo not drawn) What is its recorded IC50?
A: 4.45
